- Tested on: metastin receptors
- METHOD NOTES: Measurement of agonist activity by assaying changes in intracellular calcium ion level (FLIPR, Fluo-4 NW)
- Assay type: cell-based, human
- EXPERIMENTAL PARAMETERS: specific activity of the EC50 of a test compound based on the EC50 of Metastin (45-54), metastin receptor expression CHO cells
*1 amine or outer side, *2 acyl side, *3 side chain or, on linkers, in order; H or OH if unused. Where a SMILES comes first, the peptide text is derived from it. [ ]: non-standard residue; d: D form. Glyψ(E-CHCH)Leu = CC(C)C[C@H](/C=C/CN[*:1])C(=O)[*:2]; X1 = CC(C)C[C@H](CCCN[*:1])C(=O)[*:2]; Arg(Me) = CNC(=N)NCCC[C@H](N)C(=O)O; Dap(CONH2) = NC(=O)NC[C@H](N)C(=O)O; Ala(cPr) = N[C@@H](CC1CC1)C(=O)O; Hyp = O=C(O)[C@@H]1C[C@@H](O)CN1; Cha = N[C@@H](CC1CCCCC1)C(=O)O; Cit = NC(=O)NCCC[C@H](N)C(=O)O
Field: Specific Activity. Provide a value for each of the molecules that follow.
Answer using only a numeral; do not append any unit.

QUERY: Look up Specific Activity with metastin receptors for this molecule: CNC(=N)NCCC[C@H](NC(=O)[C@@H](/C=C/CNC(=O)[C@H](CC1CCCCC1)NC(=O)[C@@H](NC(=O)[C@H](CCCNC(N)=O)NC(=O)[C@@H]1C[C@@H](O)CN1C(=O)[C@@H](Cc1ccc(O)cc1)NC(C)=O)[C@@H](C)O)CC(C)C)C(=O)N[C@@H](Cc1c[nH]c2ccccc12)C(N)=O [Compound No. 914] (Ac-[dY][Hyp][Cit]T[Cha][Glyψ(E-CHCH)Leu][Arg(Me)]W-NH2)
RESULT: 0.9

QUERY: Another: CC(=O)N[C@H](Cc1ccc(O)cc1)C(=O)N1C[C@H](O)C[C@H]1C(=O)N[C@@H](CC(N)=O)C(=O)N[C@H](C(=O)N[C@@H](CC1CCCCC1)C(=O)NCCC[C@@H](CC(C)C)C(=O)N[C@@H](CCCNC(=N)N)C(=O)N[C@@H](Cc1c[nH]c2ccccc12)C(N)=O)[C@@H](C)O [Compound No. 956] (Ac-[dY][Hyp]NT[Cha][X1]RW-NH2)
RESULT: 1.1

QUERY: Another: CNC(=N)NCCC[C@H](NC(=O)[C@H](CC1CC1)NC(=O)CNC(=O)[C@H](CC1CCCCC1)NC(=O)[C@H](CO)NC(=O)[C@H](CNC(N)=O)NC(=O)[C@@H]1C[C@@H](O)CN1C(=O)[C@@H](Cc1ccc(O)cc1)NC(C)=O)C(=O)N[C@@H](Cc1c[nH]c2ccccc12)C(N)=O [Compound No. 948] (Ac-[dY][Hyp][Dap(CONH2)]S[Cha]G[Ala(cPr)][Arg(Me)]W-NH2)
RESULT: 0.5

###

- Test system: metastin receptors
- METHOD NOTES: Measurement of agonist activity by assaying changes in intracellular calcium ion level (FLIPR, Fluo-4 NW)
- Format: cell-based, human
- EXPERIMENTAL PARAMETERS: specific activity of the EC50 of a test compound based on the EC50 of Metastin (45-54), metastin receptor expression CHO cells
*1 amine or outer side, *2 acyl side, *3 side chain or, on linkers, in order; H or OH if unused. Where a SMILES comes first, the peptide text is derived from it. [ ]: non-standard residue; d: D form. X5 = O=C(/C=C/[C@H](O)[C@H](Cc1ccccc1)N[*:1])[*:2]; Arg(Me) = CNC(=N)NCCC[C@H](N)C(=O)O; Dap(CONH2) = NC(=O)NC[C@H](N)C(=O)O; Ala(cPr) = N[C@@H](CC1CC1)C(=O)O; Hyp = O=C(O)[C@@H]1C[C@@H](O)CN1; Cha = N[C@@H](CC1CCCCC1)C(=O)O
Field: Specific Activity. Provide a value for each of the compounds that follow.

QUERY: Given the compound CNC(=N)NCCC[C@H](NC(=O)[C@H](CC(C)C)NC(=O)/C=C/[C@H](O)[C@H](Cc1ccccc1)NC(=O)[C@@H](NC(=O)[C@H](CC(N)=O)NC(=O)[C@@H]1C[C@@H](O)CN1C(=O)[C@@H](Cc1ccc(O)cc1)NC(C)=O)[C@@H](C)O)C(=O)N[C@@H](Cc1c[nH]c2ccccc12)C(N)=O [Compound No. 858] (Ac-[dY][Hyp]NT[X5]L[Arg(Me)]W-NH2) , what is its reported Specific Activity?
RESULT: 1.7

QUERY: Another: CC(=O)N[C@H](Cc1ccc(O)cc1)C(=O)N[C@@H](CCC(=O)O)C(=O)N[C@@H](CC(N)=O)C(=O)N[C@H](C(=O)N[C@@H](CC1CCCCC1)C(=O)NCC(=O)N[C@@H](CC1CC1)C(=O)N[C@@H](CCCNC(=N)N)C(=O)N[C@@H](Cc1c[nH]c2ccccc12)C(N)=O)[C@@H](C)O [Compound No. 942] (Ac-[dY]ENT[Cha]G[Ala(cPr)]RW-NH2)
RESULT: 0.4

QUERY: Another: CNC(=N)NCCC[C@H](NC(=O)[C@H](CC1CC1)NC(=O)CNC(=O)[C@H](CC1CCCCC1)NC(=O)CNC(=O)[C@H](CNC(N)=O)NC(=O)[C@@H]1C[C@@H](O)CN1C(=O)[C@@H](Cc1ccc(O)cc1)NC(C)=O)C(=O)N[C@@H](Cc1c[nH]c2ccccc12)C(N)=O [Compound No. 949] (Ac-[dY][Hyp][Dap(CONH2)]G[Cha]G[Ala(cPr)][Arg(Me)]W-NH2)
RESULT: 0.7
